Each record here notes measured Increase in lung resistance (%).
test system: airway hyper-responsiveness induced by peroxynitrite; test: Airway hyper-responsiveness model induced by exposure of peroxynitrite in guinea pigs (lung resistance after histamine); format: in vivo; details: 30 mg/kg orally one hour before peroxynitrite, histamine 32 μg/kg i.v. on 5-day, control group 759, non-stimulation group 382
Put down the number, then write its unit next to it.

Use the examples below as a reference point.
[
  {
    "molecule.smiles": "CCCCCCCCn1c(=O)c(OC)c(O)c2ccc(NCC)cc21",
    "Increase in lung resistance (%)": "431%"
  },
  {
    "molecule.smiles": "COc1c(O)c(=O)n(C)c2cc(N)ccc12",
    "Increase in lung resistance (%)": "423%"
  },
  {
    "molecule.smiles": "CCCCNc1ccc2c(OC)c(O)c(=O)n(CC)c2c1",
    "Increase in lung resistance (%)": "430%"
  }
]

Let us examine a further case.
Q. What does the record list as Increase in lung resistance (%) for CCCCCCOc1c(O)c(=O)n(C)c2cc(NC(C)=O)ccc12 ?
A. 420%

====

Below, each entry is listed with its recorded Increase in lung resistance (%).
Tested on: airway hyper-responsiveness induced by peroxynitrite
Assay: Airway hyper-responsiveness model induced by exposure of peroxynitrite in guinea pigs (lung resistance after histamine)
Assay type: in vivo
Settings: 30 mg/kg orally one hour before peroxynitrite, histamine 32 μg/kg i.v. on 5-day, control group 759, non-stimulation group 382
Experimental: This test was performed so as to investigate the pharmacological effect of the 7-aminoquinolinone derivative of the present invention on an airway hyper-responsiveness model induced by exposure of peroxynitrite in guinea pigs. The test procedure will now be described. Guinea pigs were fasted for 18 hours or more. […] The percentage of increase in lung resistance was calculated by the following equation. […]
Report the value in % with no unit label.

Example entries and their recorded answers appear below.
[
  {
    "molecule.smiles": "CCCCCCNc1ccc2c(O)c(OC)c(=O)[nH]c2c1",
    "endpoint.value": 439
  },
  {
    "molecule.smiles": "CCNc1ccc2c(O)c(OC)c(=O)n(C)c2c1",
    "endpoint.value": 428
  },
  {
    "molecule.smiles": "CCCCCCCCOc1c(O)c2ccc(NC(=O)C=Cc3cc(OC)c(O)c(OC)c3)cc2n(C)c1=O",
    "endpoint.value": 416
  },
  {
    "molecule.smiles": "COc1c(OC(C)=O)c(=O)n(C)c2cc(N)ccc12",
    "endpoint.value": 435
  },
  {
    "molecule.smiles": "CCCCCCCCOc1c(O)c2ccc(N)cc2n(CC)c1=O",
    "endpoint.value": 432
  },
  {
    "molecule.smiles": "COc1c(O)c2ccc(NC(=O)c3ccccc3)cc2n(C)c1=O",
    "endpoint.value": 434
  },
  {
    "molecule.smiles": "COc1cc(C=CC(=O)Nc2ccc3c(O)c(OC)c(=O)n(C)c3c2)cc(OC)c1O",
    "endpoint.value": 422
  },
  {
    "molecule.smiles": "CCCCCCCCn1c(=O)c(O)c(OC)c2ccc(N)cc21",
    "endpoint.value": 425
  }
]

Q. Report Increase in lung resistance (%) for COc1cc(C=CC(=O)Nc2ccc3c(O)c(OCC=C(C)CCC=C(C)C)c(=O)n(C)c3c2)cc(OC)c1O please.
A. 417

Q. Here is the next compound: CCCCCCCCOc1c(O)c2ccc(NC(=O)c3ccccc3)cc2n(C)c1=O
A. 440

Reference source for all entries: patent US8980914B2
